Hey, just so you know, these numbers are from paper PMC12865480.

Target: σ1 receptor (Cavia porcellus)
Sequence (Q60492 whole entry): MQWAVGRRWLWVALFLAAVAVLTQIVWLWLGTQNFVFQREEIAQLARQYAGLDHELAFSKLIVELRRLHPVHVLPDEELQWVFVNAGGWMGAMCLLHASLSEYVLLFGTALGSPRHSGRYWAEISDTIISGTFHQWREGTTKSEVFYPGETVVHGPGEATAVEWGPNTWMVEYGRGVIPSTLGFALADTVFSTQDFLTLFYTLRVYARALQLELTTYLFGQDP
Assay: biochemical
Conditions: Ki ± SEM σ1
Parameter Ki: see the listing below.
Endpoint label: Ki

>>> df
                                   compound  endpoint_label  observed_result
0  c1ccc([C@@H]2OCC[C@H](CCCCN3CCCC3)O2)cc1 (relative stereo) [19a]              Ki           154 nM
1  CNC(CCC[C@H]1CCO[C@@H](c2ccccc2)O1)c1ccccc1 (relative stereo) [25a]              Ki           144 nM
2  c1ccc(C(CCC[C@H]2CCO[C@@H](c3ccccc3)O2)N2CCCC2)cc1 (relative stereo) [27a]              Ki           161 nM
3  CC[C@]1(c2ccccc2)OCC[C@H](CCCCNC)O1 (relative stereo) [16b]              Ki           107 nM
